Target: GATA4–NKX2-5 transcriptional synergy (Mus musculus, UniProt P42582+Q08369)
Construct: expressed in transfected cells; host or cells: COS-1
Sequence (Q08369 whole entry): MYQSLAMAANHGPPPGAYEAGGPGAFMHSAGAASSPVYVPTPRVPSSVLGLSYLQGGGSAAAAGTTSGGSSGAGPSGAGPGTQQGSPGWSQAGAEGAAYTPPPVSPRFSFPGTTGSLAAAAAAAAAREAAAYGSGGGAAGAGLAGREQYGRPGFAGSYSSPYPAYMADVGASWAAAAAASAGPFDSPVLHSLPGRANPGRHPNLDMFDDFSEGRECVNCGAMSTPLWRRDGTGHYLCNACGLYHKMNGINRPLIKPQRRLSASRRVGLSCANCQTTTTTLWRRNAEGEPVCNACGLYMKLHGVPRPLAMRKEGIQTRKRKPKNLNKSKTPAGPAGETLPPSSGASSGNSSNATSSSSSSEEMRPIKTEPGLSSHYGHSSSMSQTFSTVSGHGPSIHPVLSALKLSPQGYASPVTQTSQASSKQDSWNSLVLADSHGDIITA
Sequence (P42582 whole entry): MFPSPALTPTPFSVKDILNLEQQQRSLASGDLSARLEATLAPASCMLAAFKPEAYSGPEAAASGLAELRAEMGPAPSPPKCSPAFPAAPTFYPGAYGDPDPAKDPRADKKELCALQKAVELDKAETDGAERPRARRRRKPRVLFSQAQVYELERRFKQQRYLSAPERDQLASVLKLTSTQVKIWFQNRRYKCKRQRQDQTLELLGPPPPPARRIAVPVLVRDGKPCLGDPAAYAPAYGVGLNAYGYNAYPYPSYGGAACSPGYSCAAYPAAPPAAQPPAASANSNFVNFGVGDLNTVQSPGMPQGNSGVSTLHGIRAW
Experiment: GATA4–NKX2-5 transcriptional synergy luciferase reporter assay (3xNKE reporter, COS-1 cells)
Type: cell-based
Settings: 10 µM compound; GATA4–NKX2-5 transcriptional synergy reporter, COS-1 cells
quantityKind: activity at 10 µM (%)

> print(dat)
                                   compound                             assayedsystem  assayresult
1  CCN(CC)c1ccc(/N=C/c2c(-c3ccccc3)noc2C)cc1 [Compound 19]  GATA4–NKX2-5 transcriptional synergy (Mus musculus, UniProt P42582+Q08369)         99.7
2  CSc1nsc(SC)c1C(=O)Nc1ccc2oc(-c3ccccc3)cc(=O)c2c1 [SI103]  GATA4–NKX2-5 transcriptional synergy (Mus musculus, UniProt P42582+Q08369)          110
3  CCN(CC)c1ccc(NCc2c(-c3ccccc3)noc2C)cc1 [Compound 20]  GATA4–NKX2-5 transcriptional synergy (Mus musculus, UniProt P42582+Q08369)          104
